# tgt: Grb2 SH2 (UniProt P62993)
# Sequence (P62993 whole entry, looked up, the tested form may be a part): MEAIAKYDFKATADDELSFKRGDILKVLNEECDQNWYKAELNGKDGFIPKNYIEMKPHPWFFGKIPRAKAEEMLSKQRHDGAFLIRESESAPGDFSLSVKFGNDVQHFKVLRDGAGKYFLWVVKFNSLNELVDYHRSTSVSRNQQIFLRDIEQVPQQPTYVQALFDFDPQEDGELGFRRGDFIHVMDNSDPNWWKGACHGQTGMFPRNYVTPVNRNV
# test.protocol: SH2 binding enrichment of the phosphorylated peptide, bacterial display (enrichment ratio); higher = better substrate or ligand; peptides without Tyr show the background;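 also: peptide library displayed on the E. coli surface as eCPX fusions, selected cells deep-sequenced, score is each peptide's frequency after selection divided by its frequency in the input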
Attribute: SH2 binding enrichment
Lab note: record just the number, no unit beside it.

| residue.sequence | SH2 binding enrichment |
| --- | --- |
| PGIRMYRVQFN [LRFN1_Y454_Q455R_YF] | 0.796 |

What the record says about QKMFDYLKEKK [RYR2_Y3780_L3778F] : SH2 binding enrichment is 0.743

Field SH2 binding enrichment (entry SLNEEYAKNKT [MSH2_Y563_T564A] ) reads 0.949

PGVDIYVSPNM [PADI3_Y51_I52V] has a reported SH2 binding enrichment of 0.804

// SH2 binding enrichment value for SDFFAYSPVRE [H6PD_Y449_YF] : 0.798

The sequence listed as EGNERYEGFCV [GRIA3_Y451_YF] has a reported SH2 binding enrichment of 0.74

// field: SH2 binding enrichment; key: AKIDGYIISFR ; value = 0.936
